test system: SW480; test: Cytotoxicity against human SW480 cells after 48 hrs by MTT method; type: functional, cell-based; details: SW480, 48 h
pIC50: −log10 of the molar value.
MEASUREMENT_KIND: pIC50

>>> print(df.to_string())
                           smiles_structure  measurement_kind  relation_qualifier  reading
0  C=C1C(=O)[C@@]23[C@@H]4OC5O[C@@]2(O)[C@@H](O)[C@@H]2C(C)(C)CC[C@@H](O)[C@]52[C@@H]3CC[C@@H]14             pIC50                   =     5.55
1  C=C1[C@@H](O)[C@]23[C@H](O)[C@H]1C[C@H](O)[C@H]2[C@@]12CCCC(C)(C)[C@H]1[C@H](O)[C@@]3(O)O[C@@H]2OC             pIC50                   <     5.00
2  C=C1[C@@H](O)[C@@]23[C@H]4O[C@H]5O[C@]2(O)[C@@H](OC(C)=O)[C@@H]2C(C)(C)CCC[C@@]52[C@@H]3[C@@H](O)C[C@@H]14             pIC50                   <     5.00
3  C=C1C(=O)[C@]23[C@H](O)[C@H]1CC[C@H]2[C@]12CCCC(C)(C)[C@H]1[C@H](O)[C@]3(O)OC2=O             pIC50                   =     5.46
4  C=C1C(=O)[C@@]23C(=CC[C@@H]1[C@H]2O)[C@@]12CO[C@]3(O)[C@@H](O)[C@@H]1C(C)(C)CC[C@@H]2OC(C)=O             pIC50                   <     5.00

* * *

test system: SW480; assay: Cytotoxicity against human SW480 cells after 48 hrs by MTT method; format: functional, cell-based; settings: SW480, 48 h
MEASUREMENT_KIND: IC50 (µM)

In [3]: df
Out[3]:
                           smiles_structure  experimental_system  measurement_kind  unit_descriptor  relation_qualifier  reading
0  C=C1[C@H]2C[C@]3(C(=C[C@@H]2O)[C@@]24CO[C@]3(O)[C@@H](O)[C@@H]2C(C)(C)CC[C@@H]4OC(C)=O)[C@@H]1O                SW480              IC50               µM                   =      3.1
1  C=C1[C@@H](O)[C@]23[C@H](O)[C@H]1C[C@H](OC(C)=O)[C@H]2[C@@]12CCCC(C)(C)[C@H]1[C@H](O)[C@@]3(O)O[C@@H]2OC                SW480              IC50               µM                   >       10
2  C=C1C(=O)[C@]23C[C@H]1C[C@@H](OC(C)=O)[C@H]2[C@]12CCCC(C)(C)[C@H]1[C@H](O)[C@@]3(O)OC2                SW480              IC50               µM                   =      2.4
3  COC[C@@H]1C(=O)[C@]23[C@H](O)[C@H]1C[C@H](O)[C@H]2[C@@]12CCCC(C)(C)[C@H]1[C@H](O)[C@@]3(O)O[C@@H]2OC                SW480              IC50               µM                   >       10
4  COC[C@H]1C(=O)[C@@]23[C@H]4O[C@H]5O[C@]2(O)[C@@H](O)[C@@H]2C(C)(C)CC[C@H](O)[C@]52[C@@H]3CC[C@@H]14                SW480              IC50               µM                   >       10
